method-notes: amyloid nucleation score (Sup35N fusion, yeast selection) (log enrichment); library NNK1; higher = more nucleation; inactive = no reads after selection;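 further: zero at mode of non-aggregating sequences after 7 days selection at 30°C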
Label class 1 when amyloid nucleation score is at or above 0.2; otherwise label class 0.

- IETWCVKWFH: class 0
- DKELSFAKGACSKFSDSFRA: class 0
- LDGFSVNLCWFRHTERCVAC: class 0
- LHGPVFYKFACVVASPWGSI: class 0
- NLCRIRIARLQHGGRSTMSF: class 1
- HKIDINSVLLLKCVVYVGCL: class 1
- LVAYVTRRFVLCM: class 0
- FYGQRPKMLCPTRAEDLTKA: class 0
- RFANMLNVFENV: class 0
- WVQFLDMGAVMKIWLVKCFP: class 0
- AIFNTGNMWDTLRRHSGVHV: class 0
- CEVSIVSLARYVGREDLFDR: class 1
- DKRNVASYDSMCQLLAILFN: class 1
- YGLSSGFLYADLEDVPALLW: class 1
- MTFVMHIAWG: class 1
- EIKISSDGTVSMARGRWCQG: class 1
- SYVYHPTSRLVWIIRMIT: class 1
- LNHRIYNLLHVILWVKQWMK: class 0
- GHSDFYTTPLKLCRGE: class 1
- NSVVRVIKRSWRTVVLLHDR: class 0
- ATRSMEAIIMRELWYIDPVY: class 1
- ICFFGCQGGGPRLRQDRCRT: class 0
- MLLSWMNAMVFTRRVHLAEP: class 0
- TEFFGVGLRMKSNGVWWISG: class 0
- MKLWMEMRWGRG: class 1
- YSNWTVSTSFSNHERHVFLA: class 1
- RFQTGPTLCSPQTEWPVLLN: class 1
- KPKVVNMVEGLRGFCGLLDL: class 0
- SVSWYAMLRLSEIRDRCKSF: class 1
- SVWFWFSKGWFSLCWAFFEK: class 1
- CCVNVPIFRRKFGTCSCKAW: class 0
- FFVLKGECVGGLMPWTRVTA: class 0
- GGTYPPLDISDFNW: class 0
- CDGLLYELRSVEWGKGKLNG: class 1
- PGRFLGLNSMTALVWY: class 0
- FSFLHLVGRWGLIVSNCSDV: class 0
- NHVLVVGISNLSSCHWMPNF: class 1
- NVVSYFHMAFGWCFNLW: class 1
- QLNFYIR: class 1
- RFLSSALRARRYSRPVPLVM: class 1
- EICMRPY: class 0
- LSILSGWNTE: class 0
- YNVKSVCGRAPIGVMGRKWG: class 1
- LMFLGWSNRKMTSHSIMTVL: class 1
- SVSEWRQVILIIGVIVK: class 0
- VARHGEGFNW: class 1
- MMFAKDSI: class 1
- PLVKGIHSNPRTYTTMYYSY: class 0
- GPRVSPVKFIVRLGQVNLDR: class 1
- EFMYYL: class 0
- AVLKGYRWACMVFLSGFGRC: class 1
- VCSSLFSSCPL: class 1
- HGSVRSLSYRLVSLYLSRMC: class 1
- MVLFKELIMVFTQARAS: class 0
- CWRLSYGLGVTFNKMLWPWK: class 1
- DSSMWFTASLYSYVLLSLNL: class 1
- MTSCDWTTTKSSDVAPDWRM: class 1
- WSRSLVLGPLEMAHTKAVQN: class 0
- YSRGGFGHWFQHSL: class 0
